experiment: Particle size distribution by laser diffraction (Malvern Mastersizer 2000); assay type: physicochemical; conditions: laser diffraction
Catalogue of Particle Size D50 values
The number alone won't do; follow it with the unit.

Previously resolved entries follow.
Molecule	Particle Size D50
C[C@@]1(O)CC[C@H]2[C@H](CC[C@@H]3[C@@H]2CC[C@]2(C)[C@@H](C(=O)Cn4cc(C#N)cn4)CC[C@@H]32)C1 [Un-micronized Form C of Compound 1d]	16.2 μm
C[C@@]1(O)CC[C@H]2[C@H](CC[C@@H]3[C@@H]2CC[C@]2(C)[C@@H](C(=O)Cn4cc(C#N)cn4)CC[C@@H]32)C1 [Un-micronized Form C of Compound 1b]	14.7 μm
C[C@@]1(O)CC[C@H]2[C@H](CC[C@@H]3[C@@H]2CC[C@]2(C)[C@@H](C(=O)Cn4cc(C#N)cn4)CC[C@@H]32)C1 [Micronized Form C of Compound 1a]	2.4 μm

// next entry
Would you kindly share the measured Particle Size D50 for C[C@@]1(O)CC[C@H]2[C@H](CC[C@@H]3[C@@H]2CC[C@]2(C)[C@@H](C(=O)Cn4cc(C#N)cn4)CC[C@@H]32)C1 [Micronized Form C of Compound 1b] ?
2.1 μm

---

Assay: Pharmacokinetic profile of Form C of Compound 1 (micronized and un-micronized) in rat, oral gavage
Assay type: in vivo
Details: male, Sprague-Dawley, rat, plasma, po, 15 mg/kg, male Sprague-Dawley rats, oral gavage 15 mg/kg, suspended in 2% aqueous PVP-VA; read-out: Tmax
Protocol: Two groups, each with three male Sprague-Dawley rats, received an oral gavage dose of Compound 1 (un-micronized Form C or micronized Form C) suspended in 2% aqueous PVP-VA at a concentration and volume intended to achieve a target dose level of 15 mg/kg. Serial blood samples were collected from each animal at 0.25, 0.5, 1, 2, 4, 6, 8 and 24 hours after dosing. […] Plasma samples were analyzed for Compound 1 by LC-MS/MS. […]
Metric: Tmax (h)
Number only, in h; omit the unit.

Would you kindly share the measured Tmax for C[C@@]1(O)CC[C@H]2[C@H](CC[C@@H]3[C@@H]2CC[C@]2(C)[C@@H](C(=O)Cn4cc(C#N)cn4)CC[C@@H]32)C1 [Un-micronized Form C of Compound 1] ?
6.67

---

experiment: Particle size distribution by laser diffraction (Malvern Mastersizer 2000); type: physicochemical; conditions: laser diffraction
criterion met if Particle Size D90 is below 30 μm. criterion not met if not; exact matches included in criterion not met.

Threshold test, Particle Size D90 < 30 μm: C[C@@]1(O)CC[C@H]2[C@H](CC[C@@H]3[C@@H]2CC[C@]2(C)[C@@H](C(=O)Cn4cc(C#N)cn4)CC[C@@H]32)C1 [Micronized Form C of Compound 1c]
criterion met

Threshold test, Particle Size D90 < 30 μm: C[C@@]1(O)CC[C@H]2[C@H](CC[C@@H]3[C@@H]2CC[C@]2(C)[C@@H](C(=O)Cn4cc(C#N)cn4)CC[C@@H]32)C1 [Micronized Form A of Compound 1]
criterion met

Threshold test, Particle Size D90 < 30 μm: C[C@@]1(O)CC[C@H]2[C@H](CC[C@@H]3[C@@H]2CC[C@]2(C)[C@@H](C(=O)Cn4cc(C#N)cn4)CC[C@@H]32)C1 [Un-micronized Form C of Compound 1b]
criterion not met

Threshold test, Particle Size D90 < 30 μm: C[C@@]1(O)CC[C@H]2[C@H](CC[C@@H]3[C@@H]2CC[C@]2(C)[C@@H](C(=O)Cn4cc(C#N)cn4)CC[C@@H]32)C1 [Un-micronized Form C of Compound 1a]
criterion met

Threshold test, Particle Size D90 < 30 μm: C[C@@]1(O)CC[C@H]2[C@H](CC[C@@H]3[C@@H]2CC[C@]2(C)[C@@H](C(=O)Cn4cc(C#N)cn4)CC[C@@H]32)C1 [Micronized Form C of Compound 1d]
criterion met

Threshold test, Particle Size D90 < 30 μm: C[C@@]1(O)CC[C@H]2[C@H](CC[C@@H]3[C@@H]2CC[C@]2(C)[C@@H](C(=O)Cn4cc(C#N)cn4)CC[C@@H]32)C1 [Un-micronized Form C of Compound 1d]
criterion not met

---

Catalogue of Particle Size D90 values
test: Particle size distribution by laser diffraction (Malvern Mastersizer 2000); format: physicochemical; details: laser diffraction
Number only, in μm; omit the unit.

Previously resolved entries follow.
Compound	Value Unit	Observed Measurement
C[C@@]1(O)CC[C@H]2[C@H](CC[C@@H]3[C@@H]2CC[C@]2(C)[C@@H](C(=O)Cn4cc(C#N)cn4)CC[C@@H]32)C1 [Micronized Form C of Compound 1b]	μm	5.2
C[C@@]1(O)CC[C@H]2[C@H](CC[C@@H]3[C@@H]2CC[C@]2(C)[C@@H](C(=O)Cn4cc(C#N)cn4)CC[C@@H]32)C1 [Micronized Form C of Compound 1a]	μm	6.1

Would you kindly share the measured Particle Size D90 for C[C@@]1(O)CC[C@H]2[C@H](CC[C@@H]3[C@@H]2CC[C@]2(C)[C@@H](C(=O)Cn4cc(C#N)cn4)CC[C@@H]32)C1 [Un-micronized Form C of Compound 1c] ?
35.5
